Notes on Kd obtained with human SRIF receptor type 2 (Homo sapiens, UniProt P30874).
Sequence (P30874 whole entry): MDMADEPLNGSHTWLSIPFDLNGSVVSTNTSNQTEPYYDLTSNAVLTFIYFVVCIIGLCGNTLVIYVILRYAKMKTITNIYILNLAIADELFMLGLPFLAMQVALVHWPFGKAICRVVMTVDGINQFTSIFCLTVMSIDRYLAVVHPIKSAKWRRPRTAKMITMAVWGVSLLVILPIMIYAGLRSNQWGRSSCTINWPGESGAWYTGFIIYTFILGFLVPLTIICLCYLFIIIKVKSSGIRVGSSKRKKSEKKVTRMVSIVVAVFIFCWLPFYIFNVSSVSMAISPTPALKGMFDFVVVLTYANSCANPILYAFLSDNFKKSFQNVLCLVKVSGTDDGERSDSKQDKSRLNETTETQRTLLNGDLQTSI
Positions of bridges follow the written chain, without caps; N, C: chain ends. Non-standard residues stand in square brackets, D forms with d. Residues, ends and D or L forms follow the SMILES beside them. Phe(4-NH2) = Nc1ccc(C[C@H](N)C(=O)O)cc1
Hi! Could you send only the number? It should be in nM, unit omitted.

# input What value of Kd has been reported for the following compound? C[C@@H](O)[C@H](NC(=O)[C@@H]1CSSC[C@H](NC(=O)[C@H](CCCCN)NC(=O)[C@H](Cc2ccc(O)cc2)NC(=O)[C@@H](CCCCN)NC(=O)[C@@H](Cc2ccc(O)cc2)NC(=O)[C@H](CCCCN)NC(=O)[C@H](Cc2ccc(O)cc2)NC(=O)[C@H](N)CCCCN)C(=O)N[C@@H](Cc2ccccc2)C(=O)N[C@H](Cc2c[nH]c3ccccc23)C(=O)N[C@@H](CCCCN)C(=O)N[C@@H]([C@@H](C)O)C(=O)N1)C(N)=O [JF-05-85] (H-[dK]YK[dY][dK]YKCF[dW]KTCT-NH2; disulfide 8-13)
# output 0.38

# input What does the data say about its Kd? Entry: C[C@@H](O)[C@H](NC(=O)[C@@H]1CSSC[C@H](NC(=O)[C@@H](CCCCN)NC(=O)[C@@H](Cc2ccc(O)cc2)NC(=O)[C@H](N)CCCCN)C(=O)N[C@@H](Cc2ccccc2)C(=O)N[C@H](Cc2c[nH]c3ccccc23)C(=O)N[C@@H](CCCCN)C(=O)N[C@@H]([C@@H](C)O)C(=O)N1)C(N)=O [JF-06-50] (H-[dK][dY][dK]CF[dW]KTCT-NH2; disulfide 4-9)
# output 1.96

# input Can you look up the measured Kd of C[C@@H](O)[C@H](NC(=O)[C@@H]1CSSC[C@H](NC(=O)[C@H](CCCCN)NC(=O)[C@H](Cc2ccc(N)cc2)NC(=O)[C@H](CCCCN)NC(=O)[C@H](Cc2ccc(N)cc2)NC(=O)[C@H](N)CCCCN)C(=O)N[C@@H](Cc2ccccc2)C(=O)N[C@H](Cc2c[nH]c3ccccc23)C(=O)N[C@@H](CCCCN)C(=O)N[C@@H]([C@@H](C)O)C(=O)N1)C(N)=O [JF-06-31] (H-[dK][Phe(4-NH2)]K[Phe(4-NH2)]KCF[dW]KTCT-NH2; disulfide 6-11) for me?
# output 0.09
